# Tested on: bacillus megatherium 10778
# protocol: MIC against bacillus megatherium 10778
# Assay type: cell-based
# test.conditions: bacillus megatherium 10778; read-out: MIC
# Source text: Now, for illustrating the excellent pharmacological effects of the compounds of this invention, the values of MIC (γ/ml) of the compounds against various bacteria are shown in the following table, the compounds of this invention are shown by example numbers.
log10 of MIC values for the molecules below.
readout: log10 of MIC (log10 of the value in µg/mL)

# molecule, readout.number
records = [
    ("CC(=O)OCC1=C(C(=O)O)N2C(=O)[C@@H](NC(=O)[C@H](N)c3ccccc3)[C@H]2SC1 [Cephaloglycin, reference compound]", 0.00),
    ("O=C(O)C1=C(CSc2ccc(S)nn2)CS[C@@H]2[C@H](NC(=O)[C@H](NC(=O)c3cnccc3O)c3ccccc3)C(=O)N12 [Example 1]", -0.41),
    ("Cn1nnnc1SCC1=C(C(=O)O)N2C(=O)C(NC(=O)C(NC(=O)c3cccnc3)c3ccccc3)C2SC1 (centres unmarked) [Example C-1, reference compound]", 0.50),
    ("CC(=O)Nc1nc(S)nc(SCC2=C(C(=O)O)N3C(=O)[C@@H](NC(=O)[C@H](NC(=O)c4cnccc4O)c4ccccc4)[C@H]3SC2)n1 [Example 4]", -0.41),
    ("CSc1nc(S)cc(SCC2=C(C(=O)O)N3C(=O)[C@@H](NC(=O)[C@H](NC(=O)c4cnccc4O)c4ccccc4)[C@H]3SC2)n1 [Example 7]", -0.41),
    ("O=C(O)C1=C(CSc2cc(S)ncn2)CS[C@@H]2[C@H](NC(=O)[C@H](NC(=O)c3cnccc3O)c3ccccc3)C(=O)N12 [Example 5]", -0.72),
    ("Cc1nnc(SCC2=C(C(=O)O)N3C(=O)[C@@H](NC(=O)Cn4cnnn4)[C@H]3SC2)s1 [Cephazolin, reference compound]", -0.72),
    ("Cc1nnc(SCC2=C(C(=O)O)N3C(=O)C(NC(=O)C(NC(=O)c4cccnc4)c4ccccc4)C3SC2)s1 (centres unmarked) [Example C-2, reference compound]", 0.50),
    ("Cc1nc(S)cc(SCC2=C(C(=O)O)N3C(=O)[C@@H](NC(=O)[C@H](NC(=O)c4cnccc4O)c4ccccc4)[C@H]3SC2)n1 [Example 2]", -0.72),
    ("Cc1c(S)sc(SCC2=C(C(=O)O)N3C(=O)[C@@H](NC(=O)[C@H](NC(=O)c4cnccc4O)c4ccccc4)[C@H]3SC2)c(C)c1=O [Example 3]", -0.72),
    ("Nc1nc(S)cc(SCC2=C(C(=O)O)N3C(=O)[C@@H](NC(=O)[C@H](NC(=O)c4cnccc4O)c4ccccc4)[C@H]3SC2)n1 [Example 6]", -0.11),
]
